Biological target: TARP γ8 dependent AMPA receptor (GluA1o-g8 fusion channel) (Homo sapiens (Human), UniProt P42261+Q8WXS5)
Sequence (P42261 other isoform, or with tags, fused parts or gaps): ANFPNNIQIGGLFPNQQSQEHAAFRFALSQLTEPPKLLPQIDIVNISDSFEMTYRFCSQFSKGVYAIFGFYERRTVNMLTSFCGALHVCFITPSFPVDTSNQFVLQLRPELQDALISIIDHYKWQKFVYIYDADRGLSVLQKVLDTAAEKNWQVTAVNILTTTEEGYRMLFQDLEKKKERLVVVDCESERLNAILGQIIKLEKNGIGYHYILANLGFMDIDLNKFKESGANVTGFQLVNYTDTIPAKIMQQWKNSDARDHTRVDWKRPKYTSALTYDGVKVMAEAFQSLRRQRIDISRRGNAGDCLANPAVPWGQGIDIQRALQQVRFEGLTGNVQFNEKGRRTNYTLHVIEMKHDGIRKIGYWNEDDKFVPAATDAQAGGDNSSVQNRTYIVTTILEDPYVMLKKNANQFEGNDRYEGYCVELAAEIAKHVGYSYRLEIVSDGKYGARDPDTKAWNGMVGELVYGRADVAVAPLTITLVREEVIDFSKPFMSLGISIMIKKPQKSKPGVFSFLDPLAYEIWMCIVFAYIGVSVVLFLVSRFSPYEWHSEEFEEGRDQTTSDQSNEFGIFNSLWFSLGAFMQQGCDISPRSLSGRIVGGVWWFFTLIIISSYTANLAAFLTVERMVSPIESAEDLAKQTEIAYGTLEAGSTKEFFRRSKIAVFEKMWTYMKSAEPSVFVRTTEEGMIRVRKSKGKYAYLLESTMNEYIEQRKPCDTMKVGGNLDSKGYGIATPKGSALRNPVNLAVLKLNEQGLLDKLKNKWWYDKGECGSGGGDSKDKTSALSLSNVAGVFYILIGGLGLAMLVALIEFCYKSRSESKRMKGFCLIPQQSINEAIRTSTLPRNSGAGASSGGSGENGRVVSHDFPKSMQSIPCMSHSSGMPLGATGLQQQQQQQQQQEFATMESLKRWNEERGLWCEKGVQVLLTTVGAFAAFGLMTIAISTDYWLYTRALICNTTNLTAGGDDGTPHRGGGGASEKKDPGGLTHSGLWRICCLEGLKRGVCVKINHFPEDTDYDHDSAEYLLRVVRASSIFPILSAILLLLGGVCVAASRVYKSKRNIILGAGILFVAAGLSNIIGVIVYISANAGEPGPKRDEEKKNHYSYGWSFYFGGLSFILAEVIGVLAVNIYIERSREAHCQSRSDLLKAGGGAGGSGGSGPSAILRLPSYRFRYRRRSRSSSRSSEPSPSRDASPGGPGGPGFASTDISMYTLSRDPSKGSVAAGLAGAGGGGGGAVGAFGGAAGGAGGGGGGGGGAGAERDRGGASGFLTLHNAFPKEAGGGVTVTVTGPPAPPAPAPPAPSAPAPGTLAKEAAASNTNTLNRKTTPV
Experiment: Calcium flux assay (FLIPR), HEK293 cells expressing GRIA1o-CACNG8 fusion
Type: cell-based
Conditions: inhibition of calcium flux after 15 μM glutamate, read-out: GluR1-γ8 pIC50 (converted)
measured endpoint: IC50 (nM)

I: Cc1c(-c2ccc3[nH]c(=O)[nH]c3c2)cccc1-c1noc(C2CC2)n1 [Example 73]
II: COc1cccc(-c2cccc3cccnc23)c1-c1ccc2[nH]c(=O)[nH]c2c1 [Example 182]
III: Cc1c(CN2CCSCC2)cccc1-c1ccc2[nH]c(=O)[nH]c2c1 [Example 154]
IV: Cc1c(-c2ccc3[nH]c(=O)[nH]c3c2)cccc1-c1nc(C2CC2)no1 [Example 201]
Task item: Order the 4 listed items from lowest to highest according to IC50. Would you mind listing the labels in the order asked for?
Reply: IV, I, III, II
